# maps each entry to its TGI
- System: DU-145 prostate
- Experiment Summary: NCI tumour cell line growth inhibition, 48 h
Write the answer as a number in µM, unit excluded.

For orientation, consider the following solved cases.
Request: For the compound CC(=O)OC[C@]1(C)C=C2C(=O)[C@](C)(O)C3(CC3)C(C)=C2[C@H]1OC(=O)N(C)CCN(C)C(=O)OC(C)(C)C , what TGI is on record?
Result: 20.9

Request: For the compound O[N+]1=CC=CCC1=S.On1ccccc1=S.[Zn] , what TGI is on record?
Result: 1.86

Request: For the compound CCN(CC)CCOc1ccc(/C=C2\CC3C4CC=C5C[C@@H](N6CCCC6)CC[C@]5(C)C4CC[C@]3(C)[C@H]2OC(C)=O)cc1OC (some centres undefined) , what TGI is on record?
Result: 6.07

New cases:
Request: For the compound CN(C)CCNc1ccc2c(=O)n(CCN(C)C)c(=O)n3c4ccccc4c(=O)c1c23 , what TGI is on record?
Result: 0.179

----------
- Tested on: M19-MEL melanoma
- Experiment Summary: NCI tumour cell line growth inhibition, 48 h
# maps each entry to its TGI

For orientation, consider the following solved cases.
Request: # returns recorded TGI (system: M19-MEL melanoma) for Nc1nc2c(nc(N)n2Cc2ccccc2)c(=O)[nH]1
Result: > 100 µM

Request: # returns recorded TGI (system: M19-MEL melanoma) for CN1CCN(CCn2c3c4ccccc4ccc3c3oc(=O)c4ccccc4c32)CC1
Result: 24.7 µM

Request: # returns recorded TGI (system: M19-MEL melanoma) for COc1ccc(/C=C/C(=O)c2sc(NC(=S)NC(=O)c3ccccc3F)nc2C)cc1OC
Result: > 100 µM

New cases:
Request: # returns recorded TGI (system: M19-MEL melanoma) for CCC12CCCN(Cc3ccccc3)C1c1c(n(C)c3ccccc13)[C@H](C(=O)OC)C2 (stereo not given in full)
Result: > 239 µM

Request: # returns recorded TGI (system: M19-MEL melanoma) for Cc1cccc(C)c1NC(=O)CCC(=O)CC(=O)C(C)C
Result: > 100 µM

----------
- System: MDA-MB-231 breast
- Experiment Summary: NCI tumour cell line growth inhibition, 48 h; in the data active = GI50 below about 0.43 µM; inactive = the rest
Assign a class; possible classes are TRUE for active, FALSE for inactive

Answered cases to consult:
Request: Look up the recorded call for Cc1ccc(-c2cc(C(=O)N3N=C(c4ccc(N)cc4)CC3c3ccc(Cl)cc3)c3ccccc3n2)cc1 (centres undefined) in this test.
Result: FALSE

Request: Look up the recorded call for CC1CN1C1=CC(=O)c2c(c(CO)cn2C)C1=O (centres undefined) in this test.
Result: FALSE

Request: Look up the recorded call for Cc1c(C(N)=O)sc2c1c(=O)n(Cc1ccccc1)c1nnc(SCC(=O)Nc3ccc(Cl)cc3)n21 in this test.
Result: FALSE

Request: Look up the recorded call for FC(F)(F)c1ccc(-c2cncn2-c2ccccc2)cc1 in this test.
Result: FALSE

Request: Look up the recorded call for CN([O-])c1nc(N(C)[O-])nc(N2CCOCC2)n1.CN([O-])c1nc(N(C)[OH2+])nc(N2CCOCC2)n1.[Fe+3] in this test.
Result: FALSE

Request: Look up the recorded call for O=C(N/N=C\c1c(O)ccc2ccccc12)C1CC1 in this test.
Result: FALSE

New cases:
Request: Look up the recorded call for COc1cccc2c1-c1ccccc1C2=O in this test.
Result: FALSE

Request: Look up the recorded call for Cc1c2cnccc2c(C)c2c1c1cc(CO)ccc1n2C in this test.
Result: TRUE

Request: Look up the recorded call for C[C@@H](O)[C@H]1C(=O)N2C(C(=O)O)=C(SCCN=CN)C[C@H]12 in this test.
Result: FALSE
